Listing of entries alongside the reported Binding (RU).
Measurement target: analytical polyclonal antibody generated in Example 2
Experimental details: SPR Biacore T100, polyclonal immobilized, 500 nM ISV, RU at end of injection
Kindly answer with a numeric value in RU, unit omitted.

Binder	Binding (RU)
Nb3.10 (VHH) VHH: EVQLVESGGGLVQAGGSLRLSCAASRSIGRLDRMGWYRHRPGEPRELVATITGGSSINYGDSVKGRFTISIDNSKNTVYLQMNSLRPEDTAVYYCNFNKYVTSRDTWGQGTLVTVSS	91
Nb6.5 (VHH) VHH: EVQLLESGGGLVQPGGSLRLSCAASGLPFSTKSMGWFRQAPGKGREFVSRISPGGTSRYYGDFVKGRFTISRDNSKNTLYLQMNSLRAEDTAVYYCASGERSTYIGSNYYRTNEYDYWGQGTLVTVSS	66
Nb3.13 (VHH) VHH: EVQLVESGGGLVQPGGSLRLSCAASRSIGRLDRMGWYRHRPGEPRELVATITGGSSINYGDSVKGRFTISIDNSKNTVYLQMNSLRPEDTAVYYCNFNKYVTSRDTWGQGTQVTVSS	90
Nb4.1 (VHH) VHH: EVQLVESGGGLVQPGGSLRLSCAASGSVFKINVMAWYRQAPGKGRELVAGIISGGSTSYADSVKGRFTISRDNAKNTLYLQMNSLRPEDTAVYYCAFITTESDYDLGRRYWGQGTLVTVSS	51

Task: Look up Binding (RU) for this binder: Nb3.12 (VHH) VHH: EVQLVESGGGLVQAGGSLRLSCAASRSIGRLDRMGWYRHRPGEPRELVATITGGSSINYGDSVKGRFTISIDNSKNTVYLQMNSLRPEDTAVYYCNFNKYVTSRDTWGQGTQVTVSS
Result: 86

Task: Sample Nb3.14 (VHH) VHH: EVQLVESGGGLVQPGGSLRLSCAASRSIGRLDRMGWYRHRPGEPRELVATITGGSSINYGDSVKGRFTISIDNSKNTVYLQMNSLRPEDTAVYYCNFNKYVTSRDTWGQGTLVQVSS — what was its Binding (RU)?
Result: 79

Task: For the binder Nb3.15 (VHH) VHH: EVQLVESGGGSVQPGGSLRLSCAASRSIGRLDRMGWYRHRPGEPRELVATITGGSSINYGDSVKGRFTISIDNSKNTVYLQMNSLRPEDTAVYYCNFNKYVTSRDTWGQGTLVTVSS , what Binding (RU) is on record?
Result: 22

Task: Name the recorded Binding (RU) for Nb3.1 (VHH) VHH: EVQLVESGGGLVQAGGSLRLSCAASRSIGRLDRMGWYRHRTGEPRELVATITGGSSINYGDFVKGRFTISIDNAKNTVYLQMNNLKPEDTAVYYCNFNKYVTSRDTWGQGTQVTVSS .
Result: 2

Task: # lookup: Binding (RU) of Nb6.2 (VHH) VHH: EVQLVESGGGLVQPGGSLRLSCIASGLPFSTKSMGWFRQAPGKEREFVARISPGGTSRYYGDFVKGRFAISRDNAKNTTWLQMNSLKAEDTAVYYCASGERSTYIGSNYYRTNEYDYWGTGTQVTVSS
Result: 39

Task: Which value of Binding (RU) has been reported for Nb3.11 (VHH) VHH: EVQLVESGGGLVQPGGSLRLSCAASRSIGRLDRMGWYRHRPGEPRELVATITGGSSINYGDSVKGRFTISIDNSKNTVYLQMNSLKPEDTAVYYCNFNKYVTSRDTWGQGTLVTVSS in the records?
Result: 88

Measured values drawn from patent US20230242620A1 for this set.
